System: A431 cells
Assay: Inhibition of cellular proliferation (sulforhodamine B staining)
Conditions: read-out: Cellular Growth Inhibition IC50 A431 Oxic; 24 hour exposure entirely under oxic conditions, washed, further 4 days
Overview of reported IC50 across a group of compounds:
Answer format: numeric, nM implied, no suffix.

// known answers, use as guide
- input smiles: "Cn1cnc([N+](=O)[O-])c1C[N+](C)(C)C/C=C/C(=O)Nc1cc2c(Nc3ccc(Cl)c(Cl)c3)ncnc2cn1"
  IC50 [nM]: 330
- input smiles: "C#Cc1cc(Nc2ncnc3cnc(NC(=O)/C=C/C[N+](C)(C)Cc4c([N+](=O)[O-])ncn4C)cc23)ccc1Cl"
  IC50 [nM]: 850
- input smiles: "Cn1cnc([N+](=O)[O-])c1C[N+](C)(C)C/C=C/C(=O)Nc1cc2c(Nc3ccc(Br)c(Cl)c3)ncnc2cn1.[Br-]"
  IC50 [nM]: 500

Query: What IC50 value was documented for this compound, `Cn1cnc([N+](=O)[O-])c1C[N+](C)(C)C/C=C/C(=O)Nc1cc2c(Nc3ccc(OCc4cccc(Cl)c4)c(Cl)c3)ncnc2cn1` ?
Result: 2900

Query: What IC50 value was documented for this compound, `Cn1cnc([N+](=O)[O-])c1C[N+](C)(C)C/C=C/C(=O)Nc1cc2c(Nc3ccc(Br)c(Br)c3)ncnc2cn1.[Br-]` ?
Result: 420

Query: What IC50 value was documented for this compound, `Cc1nc([N+](=O)[O-])c(C[N+](C)(C)C/C=C/C(=O)Nc2cc3c(Nc4ccc5c(cnn5Cc5cccc(F)c5)c4)ncnc3cn2)n1C` ?
Result: 5700

Query: What IC50 value was documented for this compound, `Cn1cnc([N+](=O)[O-])c1C[N+](C)(C)C/C=C/C(=O)Nc1cc2c(Nc3ccc(OCc4ccccn4)c(Cl)c3)ncnc2cn1` ?
Result: 10000

Query: What IC50 value was documented for this compound, `Cn1cnc([N+](=O)[O-])c1C[N+](C)(C)C/C=C/C(=O)Nc1cc2c(Nc3ccc4c(cnn4Cc4cccc(F)c4)c3)ncnc2cn1` ?
Result: 6200

Query: What IC50 value was documented for this compound, `C#Cc1cc(Nc2ncnc3cnc(NC(=O)/C=C/C[N+](C)(C)Cc4c([N+](=O)[O-])ncn4C)cc23)ccc1F` ?
Result: 3900

Query: What IC50 value was documented for this compound, `CN(C)C/C=C/C(=O)Nc1cc2c(Nc3ccc(Br)c(Cl)c3)ncnc2cn1` ?
Result: 5

----------
Overview of reported Weight Loss Nadir (%) across a group of compounds:
System: H1975 tumours; also: test concentration or dose not given here
Conditions: H1975 xenograft, q3dx4, intraperitoneal; mean nadir relative to day 0 weight
Answer format: numeric, % implied, no suffix.

// known answers, use as guide
- input smiles: "Cn1cnc([N+](=O)[O-])c1C[N+](C)(C)C/C=C/C(=O)Nc1cc2c(Nc3ccc(OCc4ccccn4)c(Cl)c3)ncnc2cn1"
  Weight Loss Nadir (%): "−9.4"
- input smiles: "CN(C)C/C=C/C(=O)Nc1cc2c(Nc3ccc(Cl)c(Br)c3)ncnc2cn1"
  Weight Loss Nadir (%): "−8.5"
- input smiles: "C#Cc1cc(Nc2ncnc3cnc(NC(=O)/C=C/CN(C)C)cc23)ccc1F"
  Weight Loss Nadir (%): "−3.3"
- input smiles: "CN(C)C/C=C/C(=O)Nc1cc2c(Nc3ccc(Br)c(Br)c3)ncnc2cn1"
  Weight Loss Nadir (%): "−4.9"
- input smiles: "CN(C)C/C=C/C(=O)Nc1cc2c(Nc3ccc(Cl)c(Cl)c3)ncnc2cn1"
  Weight Loss Nadir (%): "−9.7"

Query: What Weight Loss Nadir (%) value was documented for this compound, `Cn1cnc([N+](=O)[O-])c1C[N+](C)(C)C/C=C/C(=O)Nc1cc2c(Nc3ccc(Cl)c(Cl)c3)ncnc2cn1` ?
Result: −10.1

Numbers sourced from patent US9101632B2.
